Molecular target: Kappa-type opioid receptor (Cavia porcellus)
Sequence (P41144 whole entry): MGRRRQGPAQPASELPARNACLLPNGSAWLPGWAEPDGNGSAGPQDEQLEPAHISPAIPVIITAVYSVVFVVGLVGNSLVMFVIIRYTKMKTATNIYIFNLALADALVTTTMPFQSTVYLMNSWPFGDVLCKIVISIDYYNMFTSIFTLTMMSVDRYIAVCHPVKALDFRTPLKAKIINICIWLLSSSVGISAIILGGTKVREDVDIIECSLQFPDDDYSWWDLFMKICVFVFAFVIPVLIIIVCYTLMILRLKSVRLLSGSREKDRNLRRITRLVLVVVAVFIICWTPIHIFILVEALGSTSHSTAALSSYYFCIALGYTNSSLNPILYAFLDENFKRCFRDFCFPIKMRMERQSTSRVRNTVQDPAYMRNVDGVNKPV
Test: Compound was evaluated for binding affinity against [3H]- bremazocine labeled kappa2 opioid receptor in guinea-pig brain homogenate.
Format: tissue-based
Catalogue of Ki readings, one per entry.
Numeric answer only, unit nM assumed.

Here are 3 compounds together with their reported answers.
# smiles data, value units, readout number
data = [
    ("O=C(/C=C/c1ccc([N+](=O)[O-])cc1)N[C@@H]1CC[C@@]2(O)[C@H]3Cc4ccc(O)c5c4C2(CCN3CC2CC2)[C@H]1O5", "nM", 30.5),
    ("O=C(/C=C/c1ccc(Cl)cc1)N[C@@H]1CC[C@@]2(O)[C@H]3Cc4ccc(O)c5c4C2(CCN3CC2CC2)[C@H]1O5", "nM", 48.3),
    ("Cc1ccc(/C=C/C(=O)N[C@@H]2CC[C@@]3(O)[C@H]4Cc5ccc(O)c6c5C3(CCN4CC3CC3)[C@H]2O6)cc1", "nM", 171),
]

Now, please, on to the next compound.
Fill in the recorded Ki for this compound, with Kappa-type opioid receptor (Cavia porcellus) as test system: O=C(/C=C/c1ccccc1)N[C@@H]1CC[C@@]2(O)[C@H]3Cc4ccc(O)c5c4[C@@]2(CCN3CC2CC2)[C@H]1O5
12.8

Recorded values, source ChEMBL document CHEMBL1153667.
